Target: Prostaglandin G/H synthase 1 (Homo sapiens)
Sequence (P23219 whole entry): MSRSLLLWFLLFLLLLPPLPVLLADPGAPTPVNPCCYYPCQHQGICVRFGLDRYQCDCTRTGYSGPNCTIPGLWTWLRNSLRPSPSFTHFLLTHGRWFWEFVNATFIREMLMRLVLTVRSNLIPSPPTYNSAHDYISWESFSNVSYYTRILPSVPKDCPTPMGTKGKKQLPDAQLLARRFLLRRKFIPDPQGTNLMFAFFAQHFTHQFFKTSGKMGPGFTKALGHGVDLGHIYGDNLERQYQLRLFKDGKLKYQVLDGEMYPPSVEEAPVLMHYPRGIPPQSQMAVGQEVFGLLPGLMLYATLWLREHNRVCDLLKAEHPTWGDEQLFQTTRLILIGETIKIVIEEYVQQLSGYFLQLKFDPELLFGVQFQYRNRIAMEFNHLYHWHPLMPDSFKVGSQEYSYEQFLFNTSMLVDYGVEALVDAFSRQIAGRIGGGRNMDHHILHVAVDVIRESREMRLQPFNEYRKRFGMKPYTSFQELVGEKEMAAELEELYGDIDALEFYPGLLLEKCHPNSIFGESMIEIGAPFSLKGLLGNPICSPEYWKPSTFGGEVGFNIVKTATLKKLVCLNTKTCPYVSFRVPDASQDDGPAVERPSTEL
Assay: Inhibition of COX1 in human whole blood assessed as A23187-stimulated TxB2 production at 1 uM pre-incubated for 60 mins before A23187 addition and measured after 30 mins by ELISA (reference value: 2 ng/ml)
Conditions: 0.5 h
READOUT NAME: Activity (ng/mL)
Your answer should be a plain number; it is taken to be in ng/mL.

Qu. Given O=C1COCCN1c1ccc(Nc2nc(Cl)nc(N3CCCC3)n2)cc1 , state its recorded Activity.
Ans. 1.9

Qu. Given O=C1COCCN1c1ccc(Nc2nc(Cl)nc(Nc3ccc(O)cc3)n2)cc1 , state its recorded Activity.
Ans. 1.64

Qu. Given O=C1COCCN1c1ccc(Nc2nc(Cl)nc(Nc3ccccc3)n2)cc1 , state its recorded Activity.
Ans. 1.7

Qu. Given Nc1nc(Cl)nc(Nc2ccc(N3CCOCC3=O)cc2)n1 , state its recorded Activity.
Ans. 1.68

Qu. Given O=C1COCCN1c1ccc(Nc2nc(Cl)nc(Nc3ccc(Cl)cc3)n2)cc1 , state its recorded Activity.
Ans. 1.85

====

Target: Polyunsaturated fatty acid 5-lipoxygenase (Homo sapiens, UniProt P09917)
Sequence (P09917 whole entry): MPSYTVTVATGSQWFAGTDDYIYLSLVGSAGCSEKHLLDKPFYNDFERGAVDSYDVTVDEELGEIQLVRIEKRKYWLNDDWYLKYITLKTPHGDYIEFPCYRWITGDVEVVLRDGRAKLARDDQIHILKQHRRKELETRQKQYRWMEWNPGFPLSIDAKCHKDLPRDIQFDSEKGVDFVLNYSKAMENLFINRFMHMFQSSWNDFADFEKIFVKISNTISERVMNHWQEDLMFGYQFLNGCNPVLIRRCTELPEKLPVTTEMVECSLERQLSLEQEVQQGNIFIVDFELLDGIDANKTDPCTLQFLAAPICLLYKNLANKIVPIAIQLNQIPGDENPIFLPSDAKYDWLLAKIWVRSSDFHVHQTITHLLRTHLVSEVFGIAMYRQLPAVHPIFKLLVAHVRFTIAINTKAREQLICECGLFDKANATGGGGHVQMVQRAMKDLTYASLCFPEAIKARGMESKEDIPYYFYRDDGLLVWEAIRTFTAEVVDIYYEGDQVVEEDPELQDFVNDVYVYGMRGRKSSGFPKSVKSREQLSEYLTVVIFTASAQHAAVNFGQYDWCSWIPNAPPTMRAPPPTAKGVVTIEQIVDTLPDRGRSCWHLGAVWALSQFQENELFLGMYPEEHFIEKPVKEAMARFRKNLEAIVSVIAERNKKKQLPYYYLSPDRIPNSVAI
Experiment: Inhibition of 5-LOX (unknown origin)
READOUT NAME: IC50

Qu. Given O=C1COCCN1c1ccc(Nc2nc(Cl)nc(N3CCCC3)n2)cc1 , state its recorded IC50.
Ans. > 10 µM

====

This document collects IC50 values reported for Prostaglandin G/H synthase 1 (Ovis aries, UniProt P05979).

Qu. Given O=C(NCCOc1nc(Cl)nc(Nc2ccc(N3CCOCC3=O)cc2)n1)C1CCCN1C(=O)OCc1ccccc1 (configuration not stated) , state its recorded IC50.
Ans. > 10 µM

Qu. Given Cc1ccc(S(=O)(=O)NCCOc2nc(Cl)nc(Nc3ccc(N4CCOCC4=O)cc3)n2)cc1 , state its recorded IC50.
Ans. > 10 µM

Qu. Given O=C1COCCN1c1ccc(Nc2nc(Cl)nc(N3CCCC3)n2)cc1 , state its recorded IC50.
Ans. 10 µM

Qu. Given O=C1COCCN1c1ccc(Nc2nc(Cl)nc(N3CCN(c4ccccc4)CC3)n2)cc1 , state its recorded IC50.
Ans. > 10 µM

Qu. Given O=C1COCCN1c1ccc(Nc2nc(Cl)nc(NCc3ccccc3)n2)cc1 , state its recorded IC50.
Ans. > 10 µM

Qu. Given Cc1ccc(Nc2nc(Cl)nc(Nc3ccc(N4CCOCC4=O)cc3)n2)cc1 , state its recorded IC50.
Ans. > 10 µM

Qu. Given O=C1COCCN1c1ccc(Nc2nc(Cl)nc(Nc3ccccc3)n2)cc1 , state its recorded IC50.
Ans. > 10 µM

Qu. Given Nc1nc(Cl)nc(Nc2ccc(N3CCOCC3=O)cc2)n1 , state its recorded IC50.
Ans. > 10 µM

Qu. Given O=C1COCCN1c1ccc(Nc2nc(Cl)nc(OCCCl)n2)cc1 , state its recorded IC50.
Ans. > 10 µM

Qu. Given O=C1COCCN1c1ccc(Nc2nc(Cl)nc(Nc3ccc(Br)cc3)n2)cc1 , state its recorded IC50.
Ans. 50 µM

Qu. Given [N-]=[N+]=NCCOc1nc(Cl)nc(Nc2ccc(N3CCOCC3=O)cc2)n1 , state its recorded IC50.
Ans. > 10 µM

Qu. Given COc1ccc(Nc2nc(Cl)nc(Nc3ccc(N4CCOCC4=O)cc3)n2)cc1 , state its recorded IC50.
Ans. > 10 µM
